Target: T1, cTnI quality control product recombinant protein (human, UniProt P19429 1-210, limits assumed)
T1 construct: the assay paragraphs only say cTnI; also called cardiac troponin I; cTnI antigen
T1 sequence (P19429 whole entry): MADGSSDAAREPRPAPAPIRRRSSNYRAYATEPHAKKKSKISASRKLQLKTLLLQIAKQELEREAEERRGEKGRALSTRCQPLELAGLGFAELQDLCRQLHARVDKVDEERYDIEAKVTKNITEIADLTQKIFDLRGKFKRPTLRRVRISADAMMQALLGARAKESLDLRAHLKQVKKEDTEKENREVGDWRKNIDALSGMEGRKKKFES
Assay: AMC biosensor, antibody on sensor
quantity: koff (s⁻¹)
The response must be a number in s⁻¹ with no trailing unit.

Would you please look over these solved cases?
binder	quantity	val
Mutation 1-22 (antibody, V domains shown) VH: QVQLQQSGTELAKPGASVKFSCKASGYTFTTYWMYWIKQRPGQGLEWIGYLNPSSGHTDYNQKFKDKATLTADKSSSTAYMQLNSLTSEDSAVYYCARKYYGPFGMDYWGQGTSVTVSS VL: EIFLTQSPAIMSASPGEKVTMTCSASTTVSYVHWYQQKSGTSPKRWLYDTSKLASGIPVRFSGSGSGTSYSLTISSMEAEDAATYYCQQWSSQPYTFGGGTKLEIKR	koff	8.25e-05
Mutation 1-5 (antibody, V domains shown) VH: QVQLQQSGTELAKPGASVKFSCKASGYTFSSYWMYWIKQRPGQGLEWIGYLNPSTGHTDYNQKFKDKATLTADKSSSTAYMQLNSLTSEDSAVYYCARKYWGPFGMDYWGQGTSVTVSS VL: EIFLTQSPAIMSASPGEKVTMTCSASSSVSYVHWYQQKSGTSPKRWIYDTSKIASGIPVRFSGSGSGTSYSLTISSMEAEDAATYYCQQWSTNPYTFGGGTKLEIKR	koff	1.17e-05
Mutation 1-2 (antibody, V domains shown) VH: QVQLQQSGTELAKPGASVKFSCKASGYTFTSYWMYWIKQRPGQGLEWIGYINPSSGHTDYNQRFKDKATLTADKSSSTAYMQLNSLTSEDSAVYYCARRYWGPFGMDYWGQGTSVTVSS VL: EIFLTQSPAIMSASPGEKVTMTCSASSTVSYVHWYQQKSGTSPKRWLYDTSKLASGIPVRFSGSGSGTSYSLTISSMEAEDAATYYCQQWSSQPYTFGGGTKLEIKR	koff	0.000302
Mutation 1-3 (antibody, V domains shown) VH: QVQLQQSGTELAKPGASVKFSCKASGYTFTTYWMYWIKQRPGQGLEWIGYINPSTGHTDYNQKFKDKATLTADKSSSTAYMQLNSLTSEDSAVYYCARKYFGPFGMDYWGQGTSVTVSS VL: EIFLTQSPAIMSASPGEKVTMTCSASTSVSYVHWYQQKSGTSPKRWIYDTSKLASGIPVRFSGSGSGTSYSLTISSMEAEDAATYYCQQWSSNPYTFGGGTKLEIKR	koff	0.000181

Now for the binder whose koff we want.
Using the record for WT 1-6 (antibody, V domains shown) VH: QVQLQQSGTELAKPGASVKFSCKASDYTFTSYWMYWIKQRPGQGLEWIGYLNPSSGHTEYNQRFKDKATLTADKSSSTAYMQLNSLTSEDSAVYYCARRYFGPFAMDYWGQGTSVTVSS VL: EIFLTQSPAIMSASPGEKVTMTCSASSTVSYAHWYQQKSGTSPKRWLYDSSKLASGIPVRFSGSGSGTSYSLTISSMEAEDAATYYCQNWSTNPYTFGGGTKLEIKR , report its koff.
0.00131
